Cmax values for the compounds below.
Assay: Cmax in male ICR-CD1 mouse plasma at 40 mg/kg, po
Format: ADME, organism-based
EXPERIMENTAL_READOUT: Cmax

SMILES_RECORD: O=c1c2c([nH]c3cc(Oc4ccc(OC(F)(F)F)cc4)ccc13)CCCC2
EXPERIMENTAL_READOUT: Cmax
RECORDED_MEASUREMENT: 83 ng/mL
//
SMILES_RECORD: O=c1c2c([nH]c3cc(Oc4ccc(OC(F)(F)F)cc4)c(F)cc13)CCCC2
EXPERIMENTAL_READOUT: Cmax
RECORDED_MEASUREMENT: 42.1 ng/mL
